biological target: Monoamineoxidase B type human-derived enzyme (Homo sapiens, UniProt P27338); test: Inhibitory effects on the activity of MAO-B (Amplex Red fluorescence, benzylamine substrate); assay type: biochemical; details: treatment concentration 10 nM; read-out: Inhibitory effects (%) on the activity of MAO-B
Attribute measured: inhibition at 0.01 µM (%)
Numbers only, in %.

Study these solved cases before continuing.
[
  {
    "Record smiles": "NC(=O)OCc1cc(-c2ccc(NCc3ccccc3Cl)cc2)no1",
    "inhibition at 0.01 µM [%]": 83.3
  },
  {
    "Record smiles": "NC(=O)OCc1cc(-c2ccc(OCc3ccc(Cl)cc3)cc2)no1",
    "inhibition at 0.01 µM [%]": 86
  }
]

Moving on to the next compound.
Output inhibition at 0.01 µM of "Fc1cccc(COc2ccc(-c3cc(Cn4ccnc4)on3)cc2)c1" 89.5

###

Consider the following compounds; for each one, report its inhibition at 0.01 µM.
Molecular target: UniProtKB P27338
Sequence (P27338 1-520): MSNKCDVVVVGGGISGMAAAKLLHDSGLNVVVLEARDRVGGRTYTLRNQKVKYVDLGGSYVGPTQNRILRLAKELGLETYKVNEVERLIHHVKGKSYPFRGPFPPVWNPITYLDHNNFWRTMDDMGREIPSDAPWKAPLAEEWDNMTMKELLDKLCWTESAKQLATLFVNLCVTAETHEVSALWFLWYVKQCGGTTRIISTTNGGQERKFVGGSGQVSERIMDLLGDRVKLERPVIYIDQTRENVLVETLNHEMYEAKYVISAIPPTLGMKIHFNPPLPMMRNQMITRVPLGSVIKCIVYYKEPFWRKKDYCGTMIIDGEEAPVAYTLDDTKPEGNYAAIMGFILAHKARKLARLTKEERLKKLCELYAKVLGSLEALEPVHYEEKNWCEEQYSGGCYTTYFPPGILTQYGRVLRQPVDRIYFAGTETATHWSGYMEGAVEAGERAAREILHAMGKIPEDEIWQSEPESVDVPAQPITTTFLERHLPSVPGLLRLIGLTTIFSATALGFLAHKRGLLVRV
Experiment: Inhibitory effects on the activity of MAO-B (Amplex Red fluorescence, benzylamine substrate)
Format: biochemical
Conditions: treatment concentration 10 nM; read-out: Inhibitory effects (%) on the activity of MAO-B
One number for each entry, in %.

Please give inhibition at 0.01 µM, item by item, for the list that follows.
1. Fc1ccc(COc2ccc(-c3cc(Cn4ccnc4)on3)cc2)c(F)c1
2. Fc1cccc(F)c1COc1ccc(-c2cc(Cn3ccnc3)on2)cc1
3. Cc1noc(C)c1COc1ccc(-c2cc(COC(N)=O)on2)cc1

1. 82.7
2. 98.1
3. 87.9

###

target: Monoamineoxidase B type human-derived enzyme (Homo sapiens, UniProt P27338); assay: Inhibitory effects on the activity of MAO-B (Amplex Red fluorescence, benzylamine substrate); format: biochemical; details: treatment concentration 10 nM; read-out: Inhibitory effects (%) on the activity of MAO-B
Assign inhibition at 0.01 µM to each entry below.
Numbers only, in %.

Consider the worked cases shown below.
[
  {
    "Record smiles": "NC(=O)OCc1cc(-c2ccc(OCc3cccc(F)c3)cc2)no1",
    "Measured on": "Monoamineoxidase B type human-derived enzyme (Homo sapiens, UniProt P27338)",
    "inhibition at 0.01 µM [%]": 94.1
  },
  {
    "Record smiles": "NC(=O)OCc1cc(-c2ccc(NCc3ccc(F)c(F)c3)cc2)no1",
    "Measured on": "Monoamineoxidase B type human-derived enzyme (Homo sapiens, UniProt P27338)",
    "inhibition at 0.01 µM [%]": 88.5
  },
  {
    "Record smiles": "NC(=O)OCc1cc(-c2ccc(OCc3cc(F)ccc3Cl)cc2)no1",
    "Measured on": "Monoamineoxidase B type human-derived enzyme (Homo sapiens, UniProt P27338)",
    "inhibition at 0.01 µM [%]": 83.2
  }
]

Continue with the compound presented below.
Note down inhibition at 0.01 µM recorded for "Fc1ccc(COc2ccc(-c3cc(Cn4ccnc4)on3)cc2)cc1" 74.5

The origin of these recorded values is patent US8828992B2.
